Source listed as ChEMBL document CHEMBL5257147.

system-under-test: Epidermal growth factor receptor (Homo sapiens)
Sequence (P00533 whole entry): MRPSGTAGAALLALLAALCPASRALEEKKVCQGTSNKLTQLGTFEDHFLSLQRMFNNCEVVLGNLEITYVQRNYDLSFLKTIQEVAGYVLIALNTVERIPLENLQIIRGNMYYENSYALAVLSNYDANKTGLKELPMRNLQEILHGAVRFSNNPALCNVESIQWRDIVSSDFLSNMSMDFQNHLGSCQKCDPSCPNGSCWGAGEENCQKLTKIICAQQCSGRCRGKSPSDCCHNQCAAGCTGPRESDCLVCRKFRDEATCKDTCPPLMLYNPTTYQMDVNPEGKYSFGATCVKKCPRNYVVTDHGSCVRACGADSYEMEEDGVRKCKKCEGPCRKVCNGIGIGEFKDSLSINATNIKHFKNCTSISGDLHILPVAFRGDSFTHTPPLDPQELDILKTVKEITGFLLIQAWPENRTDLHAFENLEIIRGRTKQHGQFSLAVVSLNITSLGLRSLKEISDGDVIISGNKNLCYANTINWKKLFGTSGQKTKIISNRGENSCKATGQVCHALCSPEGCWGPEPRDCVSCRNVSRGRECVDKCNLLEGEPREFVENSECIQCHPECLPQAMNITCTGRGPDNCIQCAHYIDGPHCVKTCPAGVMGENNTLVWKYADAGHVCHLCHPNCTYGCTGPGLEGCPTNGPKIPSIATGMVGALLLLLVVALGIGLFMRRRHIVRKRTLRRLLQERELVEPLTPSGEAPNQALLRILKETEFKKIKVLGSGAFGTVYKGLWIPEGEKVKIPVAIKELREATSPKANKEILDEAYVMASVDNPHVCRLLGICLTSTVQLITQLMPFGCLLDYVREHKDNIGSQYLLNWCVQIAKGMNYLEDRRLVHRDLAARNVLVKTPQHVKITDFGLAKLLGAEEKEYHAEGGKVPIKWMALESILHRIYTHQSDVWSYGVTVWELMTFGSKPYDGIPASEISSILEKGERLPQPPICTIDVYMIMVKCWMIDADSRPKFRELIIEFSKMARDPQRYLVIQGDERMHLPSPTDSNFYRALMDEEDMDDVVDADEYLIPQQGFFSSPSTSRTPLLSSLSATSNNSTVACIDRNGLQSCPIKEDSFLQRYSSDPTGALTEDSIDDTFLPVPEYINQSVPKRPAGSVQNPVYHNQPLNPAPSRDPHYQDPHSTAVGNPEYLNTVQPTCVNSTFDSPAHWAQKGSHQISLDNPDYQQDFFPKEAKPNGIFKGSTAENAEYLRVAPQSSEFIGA
Consider the following compounds and their measured IC50 readings.
Enter your answer as a number in nM; do not include the unit.

Sample answers from the record:
COc1cc(N2CCC(N(C)C)CC2)ccc1Nc1ncc(C(=O)OC(C)C)c(-c2c[nH]c3ccccc23)n1	0.16
C=CC(=O)Nc1cc(Nc2ncc(C(=O)OC(C)C)c(-c3cn(C)c4ccccc34)n2)c(OC)cc1N(C)CCN(C)C	0.025
COc1cc(N2CCN(C)CC2)ccc1Nc1ncc(C(=O)Oc2ccccc2)c(-c2cn(C)c3ccccc23)n1	0.053

Please find the next compound below.
Ask | Short answer please: IC50, Epidermal growth factor receptor (Homo sapiens), entry `CCOC(=O)c1cnc(Nc2ccc(N3CCN(C)CC3)cc2OC)nc1-c1cn(C)c2ccccc12`
Reply | 5.2
